# TGT: Muscarinic receptor M1 and M2 (Rattus norvegicus) (UniProt P08482+P10980)
# Sequence (P08482 whole entry, looked up): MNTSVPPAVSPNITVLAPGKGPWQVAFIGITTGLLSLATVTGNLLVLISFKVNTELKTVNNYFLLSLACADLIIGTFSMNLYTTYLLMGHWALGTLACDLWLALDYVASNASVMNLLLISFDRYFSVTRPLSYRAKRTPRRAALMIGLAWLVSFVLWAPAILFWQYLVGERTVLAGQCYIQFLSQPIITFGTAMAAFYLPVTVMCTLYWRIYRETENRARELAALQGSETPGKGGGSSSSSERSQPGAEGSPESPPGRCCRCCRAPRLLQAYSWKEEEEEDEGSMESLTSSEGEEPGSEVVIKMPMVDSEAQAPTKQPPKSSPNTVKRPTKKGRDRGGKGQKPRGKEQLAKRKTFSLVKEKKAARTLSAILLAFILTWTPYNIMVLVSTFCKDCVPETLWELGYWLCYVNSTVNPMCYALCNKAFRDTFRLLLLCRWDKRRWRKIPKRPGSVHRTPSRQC
# Sequence (P10980 whole entry, looked up): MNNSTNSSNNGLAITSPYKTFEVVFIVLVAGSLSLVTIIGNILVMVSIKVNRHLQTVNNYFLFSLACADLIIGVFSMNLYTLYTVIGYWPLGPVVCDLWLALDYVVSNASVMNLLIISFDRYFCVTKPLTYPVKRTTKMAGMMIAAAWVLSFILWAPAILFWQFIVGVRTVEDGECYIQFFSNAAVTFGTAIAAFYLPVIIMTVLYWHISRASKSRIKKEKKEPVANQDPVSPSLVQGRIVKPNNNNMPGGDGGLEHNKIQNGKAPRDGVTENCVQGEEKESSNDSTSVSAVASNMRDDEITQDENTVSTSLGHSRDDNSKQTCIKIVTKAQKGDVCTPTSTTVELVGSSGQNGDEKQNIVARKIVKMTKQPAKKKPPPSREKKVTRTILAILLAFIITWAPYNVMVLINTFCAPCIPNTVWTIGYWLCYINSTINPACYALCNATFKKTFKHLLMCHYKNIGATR
# TEST SUMMARY: The agonist ratio as the ratio of Ki against [3H]QNB to that of [3H]-CD
# Assay type: functional
Below, each of the compounds is paired with its reported Ratio value.
REPORTED METRIC: Ratio

SUBSTANCE SMILES	RESULT
C(#C[C@@H]1CCCN1)CN1CCCC1.Cl.Cl	0.5
CC(=O)N1CCC[C@H]1C#CCN1CCCC1.Cl	1.9
CC(=O)N1CCC[C@H]1C#CC[N+](C)(C)C	5
CC(=O)N1CCC[C@H]1C#CCN(C)C	3.2
O=C1CCCN1CC#CCN1CCCC1	120
CCOC(=O)N1CCC[C@@H]1C#CCN1CCCC1	2.3
CN(C)CC#C[C@H]1CCCN1C(=O)OC(C)(C)C	12.8
CC(=O)N1CCC[C@@H]1C#CC[N+](C)(C)C	20.3
O=CN1CCC[C@H]1C#CCN1CCCC1	1
CC(C)(C)OC(=O)N1CCC[C@@H]1C#CCN1CCCC1	3
CS(=O)(=O)N1CCC[C@@H]1C#CCN1CCCC1.Cl	1
COC(=O)N1CCC[C@@H]1C#CCN1CCCC1	1.5
C(#C[C@H]1CCCN1)CN1CCCC1.Cl.Cl	2.5
CS(=O)(=O)N1CCC[C@H]1C#CCN1CCCC1.Cl	0.8
Cl.O=C(N1CCC[C@@H]1C#CCN1CCCC1)C(F)(F)F	0.8
CC(=O)N1CCC[C@@H]1C#CCN1CCCC1.Cl	1
CN(C)CC#C[C@H]1CCCN1.Cl.Cl	0.5
COC(=O)N1CCC[C@H]1C#CCN1CCCC1	0.4
CC(C)(C)OC(=O)N1CCC[C@H]1C#CCN1CCCC1	3
CN(C)CC#C[C@@H]1CCCN1.Cl.Cl	0.2
O=CN1CCC[C@@H]1C#CCN1CCCC1	0.7
CCOC(=O)N1CCC[C@H]1C#CCN1CCCC1	0.5
Cl.O=C(N1CCC[C@H]1C#CCN1CCCC1)C(F)(F)F	1.6
CN(C)CC#C[C@@H]1CCCN1C(=O)OC(C)(C)C	3.5
CC(=O)N1CCC[C@@H]1C#CCN(C)C	8.4

###

# TGT: Muscarinic acetylcholine receptor
# TEST SUMMARY: Binding activity to the muscarinic acetylcholine receptor in rat cortex, assayed using [3H]CD as a radioligand.
# Type: tissue-based
Please assign False whenever Ki is at or above 0.5 µM, and True whenever it is below.

SUBSTANCE SMILES	CLASS ASSIGNMENT
CC(C)(C)OC(=O)N1CCC[C@H]1C#CCN1CCCC1	True
COC(=O)N1CCC[C@H]1C#CCN1CCCC1	False
CS(=O)(=O)N1CCC[C@@H]1C#CCN1CCCC1.Cl	False
C(#C[C@@H]1CCCN1)CN1CCCC1.Cl.Cl	False
CC(=O)N1CCC[C@@H]1C#CC[N+](C)(C)C	True
Cl.O=C(N1CCC[C@@H]1C#CCN1CCCC1)C(F)(F)F	True
Cl.O=C(N1CCC[C@H]1C#CCN1CCCC1)C(F)(F)F	False
COC(=O)N1CCC[C@@H]1C#CCN1CCCC1	False
CC(=O)N1CCC[C@H]1C#CCN1CCCC1.Cl	False
CC(=O)N1CCC[C@@H]1C#CCN1CCCC1.Cl	True
CN(C)CC#C[C@@H]1CCCN1C(=O)OC(C)(C)C	False
CN(C)CC#C[C@H]1CCCN1C(=O)OC(C)(C)C	True
CC(=O)N1CCC[C@H]1C#CC[N+](C)(C)C	False
